- Test system: TYKNU
- testMethodNotes: fractional viability relative to vehicle; higher = less growth inhibition
- appliedConditions: 2uM; 72 h; genotype: DNM1L knockout (sgDNM1L #1)
Counter-ions that a name gives are not always drawn. Over roughly 2,000 compounds, “fractional viability relative to vehicle” has its median near 0.91; the lowest 2% begin near 0.045. This is one part of a sample in which the lowest values are shown more often than they occur.
Listing of entries alongside the reported fractional viability.

Need fractional viability, item CCN(Cc1ccc(Cl)nc1)/C(=C/[N+](=O)[O-])NC
0.733

Quick check: fractional viability of Cn1cc(C2=C(c3cn(C4CCN(Cc5ccccn5)CC4)c4ccccc34)C(=O)NC2=O)c2ccccc21 ?
0.952

***
Which fractional viability value is on record for COc1cc(C)[nH]c(=O)c1CNC(=O)c1c(C)n([C@H](C)C2CCOCC2)c2ccccc12 ?
0.85

What value of fractional viability has been recorded for this entry: Cc1cccc(C(C)c2c[nH]cn2)c1C (stereo not drawn) [Medetomidine HCl]
1.09

# fractional viability lookup, item O=C1CCC[C@@H]2[C@H]3CCCN4CCC[C@@H](CN12)[C@@H]34 [(+)-Matrine]
0.865

Please report the recorded fractional viability for CCCCCCCCCCCCCCCC[n+]1ccccc1 [Cetylpyridinium Chloride] .
0.216

Bench note: what fractional viability did Cc1ccccc1-n1c(Cn2ncc3c(N)ncnc32)nc2cccc(C)c2c1=O show?
0.87

Requested field: fractional viability. Item: C[C@@H]1CC[C@@]2(OC1)O[C@H]1C[C@H]3[C@@H]4CC=C5C[C@@H](O[C@@H]6O[C@H](CO)[C@@H](O[C@@H]7O[C@@H](C)[C@H](O)[C@@H](O)[C@H]7O)[C@H](O)[C@H]6O[C@@H]6O[C@@H](C)[C@H](O)[C@@H](O)[C@H]6O)CC[C@]5(C)[C@H]4CC[C@]3(C)[C@H]1[C@@H]2C
0.0559

* * *

- Test system: TYKNU
- testMethodNotes: fractional viability relative to vehicle; higher = less growth inhibition
- appliedConditions: 2uM; 72 h; genotype: sgCTRLA1 (non-targeting control)
Over roughly 2,000 compounds, “fractional viability relative to vehicle” has its median near 0.91; the lowest 2% begin near 0.045. Many of the other results were omitted from the sample, so the lowest values are more common in it than they were.
measuredAttribute: fractional viability

Worked set:
Form: Entry = CC1=C(O)C(=O)C=C2C1=CC=C1[C@@]2(C)CC[C@@]2(C)[C@@H]3C[C@](C)(C(=O)O)CC[C@]3(C)CC[C@]12C [Celastrol] | System = TYKNU | fractional viability = ____
0.0557

TYKNU / fractional viability / Cc1cc2c(C(C)C)c(O)c(O)c(C=O)c2c(O)c1-c1c(C)cc2c(C(C)C)c(O)c(O)c(C=O)c2c1O [Gossypol] : value?
1.04

// map CC[C@H](C)[C@@H]([C@@H](CC(=O)N1CCC[C@H]1[C@H](OC)[C@@H](C)C(=O)N[C@H](C)[C@@H](O)c1ccccc1)OC)N(C)C(=O)[C@@H](NC(=O)[C@@H](NC)C(C)C)C(C)C [Monomethyl auristatin E (MMAE)] to recorded fractional viability (system: TYKNU)
0.0889

API: value(readout= fractional viability, system= TYKNU, query= Cc1sc2c(c1C)C(c1ccc(Cl)cc1)=N[C@@H](CC(=O)OC(C)(C)C)c1nnc(C)n1-2 )
0.516

Query for TYKNU: what fractional viability does the record show for O=C(O[C@H]1C[C@H]2CC[C@@H](C1)[N+]21CCCC1)C(O)(c1ccccc1)c1ccccc1 [Trospium chloride] ?
1.06

Shifting focus to the molecule that follows.
Give TYKNU fractional viability for COc1cc([C@@H]2c3cc4c(cc3[C@H](O)[C@H]3COC(=O)[C@@H]23)OCO4)cc(OC)c1OC [Picropodophyllin (PPP)]
0.142

* * *

- Tested on: TYKNU
- testMethodNotes: fractional viability relative to vehicle; higher = less growth inhibition
- appliedConditions: 10uM; 72 h; genotype: sgCTRLA1 (non-targeting control)
Over roughly 2,000 compounds, “fractional viability relative to vehicle” has its median near 0.91; the lowest 2% begin near 0.045. Only a selection was taken, and the lowest values are over-represented in it overall.
Measured fractional viability, listed per entry for reference.
Reply with the value as a number alone.

Query for TYKNU: what fractional viability does the record show for Cc1cc(C(C#N)c2ccc(Cl)cc2)c(Cl)cc1NC(=O)c1cc(I)cc(I)c1O (stereo unspecified) [Closantel] ?
1.1

Test system TYKNU; read-out fractional viability; what value for NC(=O)CN1CC(O)CC1=O (stereo unspecified) [Oxiracetam] ?
0.976

What is its fractional viability for TYKNU? Entry: COc1cc([C@@H]2c3cc4c(cc3[C@H](O)[C@H]3COC(=O)[C@@H]23)OCO4)cc(OC)c1OC [Picropodophyllin (PPP)]
0.0713

Find the measured fractional viability: item O=S(=O)(CC1CS1)c1ccc(Oc2ccccc2)cc1 (stereo unspecified) , target or system TYKNU.
0.172

TYKNU / fractional viability / [O-][n+]1ccccc1[S-].[O-][n+]1ccccc1[S-].[Zn+2] [Zinc Pyrithione] : value?
0.0128

Missing value: fractional viability, TYKNU, entry CCN(CC)C(=O)c1ccc(C2=CC3(CCNCC3)Oc3cccc(O)c32)cc1 . Fill in?
0.931

Next:
// lookup fractional viability | system=TYKNU | key= C[C@@H]1[C@H](O)[C@@H](C)/C=C/C=C/CC/C=C/C=C/C=C/C=C/[C@H](O[C@H]2O[C@@H](C)[C@H](O)[C@@H](N)[C@H]2O)C[C@@H]2O[C@](O)(C[C@@H](O)[C@H](O)CC[C@@H](O)C[C@@H](O)C[C@@H](O)CC(=O)O[C@H]1C)C[C@H](O)[C@H]2C(=O)O [Nystatin (Fungicidin)]
1.03

Query the reported fractional viability for TYKNU; item: COc1cc(C)[nH]c(=O)c1CNC(=O)c1c(C)n([C@H](C)C2CCOCC2)c2ccccc12
0.698

What measured fractional viability is associated with O=[N+]([O-])c1ncc[nH]1 [Azomycin] on TYKNU?
0.975

Request: fractional viability, test system TYKNU, entry CC(C)(C)c1cc(C=C(C#N)C#N)cc(Br)c1O
0.939

Could you share what fractional viability was measured for N#C[C@H](O[C@@H]1O[C@H](C(=O)O)[C@@H](O)[C@H](O)[C@H]1O)c1ccccc1 [Laetrile] , tested on TYKNU?
1.16

Query for TYKNU: what fractional viability does the record show for CCOc1ccccc1-n1c(C(C)N2CCN(C(=O)COc3ccc(Cl)cc3)CC2)nc2ccccc2c1=O (stereo unspecified) [Erastin] ?
0.0416

// map O=C(O)c1nn(Cc2ccc(Cl)cc2Cl)c2ccccc12 [Lonidamine] to recorded fractional viability (system: TYKNU)
1.16

Return fractional viability measured with TYKNU given this compound: CC(C)=CCC[C@]1(C)C=Cc2c(O)c3c(c(CC=C(C)C)c2O1)O[C@]12C(=C[C@@H]4C[C@H]1C(C)(C)O[C@@]2(C/C=C(/C)C(=O)O)C4=O)C3=O [Gambogic Acid]
0.00876

Notebook: pull reported fractional viability for TYKNU, entry COc1cc(-n2c(=S)[nH]c3ccccc3c2=O)c(Cl)cc1Cl [Mdivi-1]
0.851

Query the reported fractional viability for TYKNU; item: Cn1cc(C2=C(c3cn(C4CCN(Cc5ccccn5)CC4)c4ccccc34)C(=O)NC2=O)c2ccccc21
0.916

* * *

- Test system: TYKNU
- testMethodNotes: fractional viability relative to vehicle; TYKNU is a high-grade serous ovarian cancer line; higher = less growth inhibition
- appliedConditions: 2uM; 72 h; genotype: sgCTRLA1 (non-targeting control)
Counter-ions that a name gives are not always drawn. The full ranking holds about 2,000 compounds; the median of “fractional viability relative to vehicle” is about 0.91, and the lowest 2% start at about 0.045. Shown is part of a subset that was picked to be rich in the lowest values.
measuredAttribute: fractional viability
Answer with a number only.

API: value(readout= fractional viability, system= TYKNU, query= O=[N+]([O-])/C=C/c1ccc2c(c1)OCO2 )
0.336

---
Query for TYKNU: what fractional viability does the record show for Cc1ccc(-n2nccn2)c(C(=O)N2CCN(c3nc4cc(Cl)ccc4o3)CC[C@H]2C)c1 ?
1.14

Could you share what fractional viability was measured for CCOc1ccccc1-n1c(C(C)N2CCN(C(=O)COc3ccc(Cl)cc3)CC2)nc2ccccc2c1=O (stereo not drawn) , tested on TYKNU?
0.0716

Which fractional viability is reported with TYKNU for this entry: Cc1ccccc1-n1c(Cn2ncc3c(N)ncnc32)nc2cccc(C)c2c1=O ?
1.14

Form field: fractional viability recorded for CC(=O)Nc1ccc(Cc2ccc(NC(C)=O)cc2)cc1 with TYKNU (enter value)
0.99

Missing value: fractional viability, TYKNU, entry CN(C)Cc1c[nH]c2ccccc12 . Fill in?
1.14

Write down the reported fractional viability of Cc1cccc(Cc2c[nH]cn2)c1C [Detomidine HCl] , test system: TYKNU.
1.01
